Quick list: inhibition per entry.
assay: M. tuberculosis H37Rv growth inhibitors, H37Rv strain (AID 1626); details: stronger effect = higher value, concentration not given here;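 note: bacteria incubated seven days before Alamar blue readout; 0% = bacteria only wells and 100% = bacteria with antibiotic wells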
The campaign covered roughly 220,000 compounds. About 2,000 (0.91%) were called active. Inconclusive results (about 2%) are left out. Not all results are given here. Entries with a potency or affinity are not part of this list.

Please review the following examples before continuing.
compound	inhibition
CC(C)(C)NC(=O)COC(=O)CCC(=O)c1ccc(F)cc1	-0.61% (inactive)
Cc1ccnc(NS(=O)(=O)c2ccc(NC(=O)/C=C/c3cccs3)cc2)n1	11.1% (inactive)
O=C(Nc1ccn(Cc2c(F)c(F)cc(F)c2F)n1)c1ccc(COc2ccc(Cl)cc2Cl)o1	4.49% (inactive)
O=C(O)/C=C/C(=O)Nc1ccc(C(=O)c2ccccc2)cc1	-9.86% (inactive)
Cc1ccc(Oc2nc(-c3cccnc3)nc3ccccc23)c([N+](=O)[O-])n1	7.05% (inactive)
O=C(Nc1ccn(Cc2ccccc2F)n1)c1ccc(COc2cc(Cl)ccc2Cl)o1	10.4% (inactive)
CCC(=O)Nc1ccc2nc(C)n(CC(=O)Nc3ccccc3)c(=O)c2c1	-7.72% (inactive)
COc1ccc(-c2oc3ncn(CCN4CCOCC4)c(=N)c3c2-c2ccc(OC)cc2)cc1	-3.67% (inactive)

Could you share which inhibition value was measured for CCNC(=O)CC1S/C(=N/N=C(\C)c2ccccc2)NC1=O (centres undefined) ? 2.78% (inactive)

Could you share which inhibition value was measured for N=c1c2c(-c3ccccc3)c(-c3ccccc3)n(Cc3ccco3)c2ncn1CCCO ? 15.2% (inactive)

Could you share which inhibition value was measured for COc1ccccc1NC(=O)CCc1nc(-c2ccccc2F)no1 ? 2% (inactive)

----------
Quick list: inhibition per entry.
test: M. tuberculosis H37Rv growth inhibitors, H37Rv strain (AID 1626); conditions: stronger effect = higher value, concentration not given here;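 note: bacteria incubated seven days before Alamar blue readout; 0% = bacteria only wells and 100% = bacteria with antibiotic wells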
Among all 220,000 compounds or so, about 2,000 (0.91%) were called active. Not shown: some 2% with an inconclusive outcome. These entries were drawn from the full list. Results with a measured potency or affinity are listed apart.
Answer with a number only, understood to be in %.

Please review the following examples before continuing.
compound	recorded.metric	result.unit	value.observed
O=C(CSc1nnc(-c2ccco2)n1CC1CCCO1)c1ccc(F)cc1 (centres undefined)	inhibition	%	-15.7
O=C(O)c1sccc1SCc1ccc(Cl)c(Cl)c1	inhibition	%	-2.78

Could you share which inhibition value was measured for O=C(/C=C/c1ccc(Br)cc1)c1ccc(NC(=O)c2ccco2)cc1 ? 10.8

Could you share which inhibition value was measured for COC(=O)C1=C(C)NC(=O)CC1c1ccc(F)c(Br)c1 (centres undefined) ? 13.5

Could you share which inhibition value was measured for COc1ccc(CNC(=O)c2cc(-c3ccncc3)nc3c(C)cc(C)cc23)cc1OC ? 6.31

----------
assay: M. tuberculosis H37Rv growth inhibitors, H37Rv strain (AID 1626); conditions: stronger effect = higher value, concentration not given here;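 note: bacteria incubated seven days before Alamar blue readout; 0% = bacteria only wells and 100% = bacteria with antibiotic wells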
The whole screen tested about 220,000 compounds, of which about 2,000 (0.91%) were called active. Inconclusive results (about 2%) are left out. These entries were drawn from the full list. Potency and affinity values are given separately.
recorded.metric: inhibition (%)
Answer with a number only, understood to be in %.

Could you share which inhibition value was measured for Cc1ccc(C)c(-c2cc(C(=O)Nc3cccc(C(=O)O)c3)c3ccccc3n2)c1 ? 2.58

Could you share which inhibition value was measured for CCc1nc(Nc2ccc3c(c2)OCCO3)c2oc3ccccc3c2n1 ? 1.04

Could you share which inhibition value was measured for Oc1c(Br)cc(Cl)cc1C=Nc1ccc(N2CCOCC2)cc1 ? 7.51

Could you share which inhibition value was measured for CCOC(=O)C1=C(CSCC(=O)OC)NC(=O)NC1c1cc(C)ccc1C (stereo not drawn) ? 0.6

Could you share which inhibition value was measured for CC1CN(C(=O)N(C)C)CCN1C(=O)N(C)C (stereo not drawn) ? -15.9

Could you share which inhibition value was measured for Cc1ccccc1Nc1nc(N)nc(CSc2nnc(C)n2C)n1 ? 3.87

Could you share which inhibition value was measured for Cc1ccc(NCc2nnc(SCC(N)=O)o2)c(C)c1 ? -3.32

Could you share which inhibition value was measured for Cc1cccc(N2CCN(C(=O)Cn3cccc3)CC2)c1C ? 3.88

Could you share which inhibition value was measured for CCc1ccc(/C=C/C(=O)c2c(C)cc(C)[nH]c2=O)cc1 ? 8.7

Could you share which inhibition value was measured for Cn1ncc(Br)c1NC(=O)Nc1ccc(OC(F)(F)F)cc1 ? 5.76

Could you share which inhibition value was measured for c1ccc2c(c1)oc1c(NCc3ccc4c(c3)OCO4)ncnc12 ? 57.7
